Values compiled from patent US9828375B2.

Exercise: state measured inhibition at 10 µM for each of the compounds provided.
# tested.on: c-KIT (Homo sapiens, UniProt P10721)
# Sequence (P10721 26-976): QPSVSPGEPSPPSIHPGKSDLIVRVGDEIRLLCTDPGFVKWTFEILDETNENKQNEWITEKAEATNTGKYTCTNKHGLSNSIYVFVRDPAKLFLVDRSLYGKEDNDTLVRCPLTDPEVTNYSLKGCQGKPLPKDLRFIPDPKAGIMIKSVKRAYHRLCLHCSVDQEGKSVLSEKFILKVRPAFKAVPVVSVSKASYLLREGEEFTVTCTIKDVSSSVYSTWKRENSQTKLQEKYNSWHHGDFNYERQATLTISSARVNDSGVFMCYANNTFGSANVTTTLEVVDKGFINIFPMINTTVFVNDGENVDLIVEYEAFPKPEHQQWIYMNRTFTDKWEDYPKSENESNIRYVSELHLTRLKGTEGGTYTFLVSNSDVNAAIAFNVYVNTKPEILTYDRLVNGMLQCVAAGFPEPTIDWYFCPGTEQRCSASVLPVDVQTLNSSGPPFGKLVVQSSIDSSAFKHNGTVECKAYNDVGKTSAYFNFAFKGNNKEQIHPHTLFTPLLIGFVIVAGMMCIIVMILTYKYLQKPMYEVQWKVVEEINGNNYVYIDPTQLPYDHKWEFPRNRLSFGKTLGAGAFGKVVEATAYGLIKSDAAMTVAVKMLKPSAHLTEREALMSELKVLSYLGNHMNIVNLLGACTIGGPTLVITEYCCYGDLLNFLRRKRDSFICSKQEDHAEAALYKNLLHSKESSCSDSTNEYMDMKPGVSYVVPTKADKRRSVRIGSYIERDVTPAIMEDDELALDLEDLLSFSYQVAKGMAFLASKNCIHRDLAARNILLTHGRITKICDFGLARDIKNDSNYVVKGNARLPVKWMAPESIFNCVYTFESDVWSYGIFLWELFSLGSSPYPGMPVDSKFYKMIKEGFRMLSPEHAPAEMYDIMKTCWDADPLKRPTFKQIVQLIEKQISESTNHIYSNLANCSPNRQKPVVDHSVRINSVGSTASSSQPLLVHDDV
# assay.info: Kinase inhibition activity test, isotope labeling: c-KIT
# Assay type: biochemical
# run.conditions: test compound at a concentration of 10 μM; read-out: Activity inhibition rate c-Kit (h)

Which value of inhibition at 10 µM has been reported for COc1cccc(NC(=O)Nc2ccc(Nc3ncnc4[nH]ncc34)cc2)c1 [4b-3] in the records?
> 30%

Which value of inhibition at 10 µM has been reported for O=C(Nc1cccc(Nc2ncnc3[nH]ncc23)c1)Nc1ccc(F)c(Cl)c1 [4b-1] in the records?
> 30%

Which value of inhibition at 10 µM has been reported for O=C(Nc1ccc(Oc2ncnc3[nH]ncc23)cc1)Nc1ccc(C(F)(F)F)cc1 [4a-1] in the records?
100%

Which value of inhibition at 10 µM has been reported for COc1ccc(NC(=O)Nc2ccc(NC(=O)N3C=NC=C4NNC=C43)cc2)cc1 [4b-6] in the records?
> 30%

* * *

# tested.on: UniProtKB P36888
# assay.info: Kinase inhibition activity test, isotope labeling (γ-33P-ATP): FLT3
# Assay type: biochemical
# run.conditions: test compound at a concentration of 10 μM; read-out: Activity inhibition rate Flt3 (h)
readout.type: inhibition at 10 µM (%)
Return type: number; implicit unit %.

Which value of inhibition at 10 µM has been reported for O=C(Nc1ccc(Oc2ncnc3[nH]ncc23)cc1)Nc1cc(C(F)(F)F)on1 in the records?
100

Which value of inhibition at 10 µM has been reported for COc1cccc(NC(=O)Nc2ccc(Nc3ncnc4[nH]ncc34)cc2)c1 in the records?
72

Which value of inhibition at 10 µM has been reported for O=C(Nc1ccc(Oc2ncnc3[nH]ncc23)cc1)Nc1ccc(N2CCOCC2)cc1 in the records?
76

Which value of inhibition at 10 µM has been reported for CC(C)(C)c1cc(NC(=O)Nc2ccc(Oc3ncnc4[nH]ncc34)cc2)no1 in the records?
100

Which value of inhibition at 10 µM has been reported for COc1ccc(NC(=O)Nc2ccc(NC(=O)N3C=NC=C4NNC=C43)cc2)cc1 in the records?
81

Which value of inhibition at 10 µM has been reported for O=C(Nc1ccc(Oc2ncnc3[nH]ncc23)cc1)Nc1cccc(C(F)(F)F)c1 in the records?
100

Which value of inhibition at 10 µM has been reported for O=C(Nc1ccc(Oc2ncnc3[nH]ncc23)cc1)Nc1ccc(C(F)(F)F)cc1 in the records?
100

* * *

Exercise: state measured inhibition at 10 µM for each of the compounds provided.
# tested.on: VEGFR2 (Homo sapiens, UniProt P35968)
# Sequence (P35968 20-1356): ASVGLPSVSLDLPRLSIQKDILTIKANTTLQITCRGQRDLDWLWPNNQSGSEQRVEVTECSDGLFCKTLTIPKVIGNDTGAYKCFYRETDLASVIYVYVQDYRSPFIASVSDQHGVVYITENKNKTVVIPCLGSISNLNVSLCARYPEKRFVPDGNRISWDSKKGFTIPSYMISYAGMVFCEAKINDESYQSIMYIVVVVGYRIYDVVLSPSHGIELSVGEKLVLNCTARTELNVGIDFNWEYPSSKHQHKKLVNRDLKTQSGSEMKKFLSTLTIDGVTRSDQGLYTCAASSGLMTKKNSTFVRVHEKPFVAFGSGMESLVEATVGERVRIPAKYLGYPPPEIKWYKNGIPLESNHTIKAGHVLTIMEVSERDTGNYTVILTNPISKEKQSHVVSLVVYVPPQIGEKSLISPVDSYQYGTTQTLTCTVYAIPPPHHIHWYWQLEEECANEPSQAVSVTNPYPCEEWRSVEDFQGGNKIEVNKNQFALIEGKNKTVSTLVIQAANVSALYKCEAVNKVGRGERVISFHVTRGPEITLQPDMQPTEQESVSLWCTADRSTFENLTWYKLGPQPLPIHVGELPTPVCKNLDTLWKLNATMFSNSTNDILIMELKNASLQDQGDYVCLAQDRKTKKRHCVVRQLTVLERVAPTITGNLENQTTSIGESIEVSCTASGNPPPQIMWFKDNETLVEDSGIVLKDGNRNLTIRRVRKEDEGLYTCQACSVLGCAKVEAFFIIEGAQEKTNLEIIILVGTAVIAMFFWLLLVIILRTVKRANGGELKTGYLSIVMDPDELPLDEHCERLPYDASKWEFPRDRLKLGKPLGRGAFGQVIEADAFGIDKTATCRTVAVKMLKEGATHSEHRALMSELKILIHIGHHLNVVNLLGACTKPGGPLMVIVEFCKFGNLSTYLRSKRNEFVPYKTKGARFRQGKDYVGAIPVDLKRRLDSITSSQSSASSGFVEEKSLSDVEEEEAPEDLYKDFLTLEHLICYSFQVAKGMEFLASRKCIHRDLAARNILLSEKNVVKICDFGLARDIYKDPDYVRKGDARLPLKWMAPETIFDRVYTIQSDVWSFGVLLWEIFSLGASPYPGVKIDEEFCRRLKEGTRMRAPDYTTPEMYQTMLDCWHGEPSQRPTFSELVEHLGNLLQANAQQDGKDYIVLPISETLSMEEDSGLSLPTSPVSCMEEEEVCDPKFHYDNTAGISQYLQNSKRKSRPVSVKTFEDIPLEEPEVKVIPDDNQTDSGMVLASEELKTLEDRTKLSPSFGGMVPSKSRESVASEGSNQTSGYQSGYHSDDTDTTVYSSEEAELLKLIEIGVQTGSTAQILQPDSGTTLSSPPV
# assay.info: Kinase inhibition activity test, isotope labeling (γ-33P-ATP): VEGFR2
# Type: biochemical
# run.conditions: test compound at a concentration of 10 μM; read-out: Activity inhibition rate VEGFR2 (h)
Return type: number; implicit unit %.

Which value of inhibition at 10 µM has been reported for Cc1cc(C)c(NC(=O)Nc2ccc(NC(=O)N3C=NC=C4NNC=C43)cc2)c(C)c1 in the records?
92

Which value of inhibition at 10 µM has been reported for COc1cccc(NC(=O)Nc2ccc(Nc3ncnc4[nH]ncc34)cc2)c1 in the records?
96

Which value of inhibition at 10 µM has been reported for O=C(Nc1ccc(Sc2ncnc3[nH]ncc23)cc1)Nc1ccc(C(F)(F)F)cc1 in the records?
100

* * *

# tested.on: PDGFRα (Homo sapiens)
# Sequence (P16234 24-1089): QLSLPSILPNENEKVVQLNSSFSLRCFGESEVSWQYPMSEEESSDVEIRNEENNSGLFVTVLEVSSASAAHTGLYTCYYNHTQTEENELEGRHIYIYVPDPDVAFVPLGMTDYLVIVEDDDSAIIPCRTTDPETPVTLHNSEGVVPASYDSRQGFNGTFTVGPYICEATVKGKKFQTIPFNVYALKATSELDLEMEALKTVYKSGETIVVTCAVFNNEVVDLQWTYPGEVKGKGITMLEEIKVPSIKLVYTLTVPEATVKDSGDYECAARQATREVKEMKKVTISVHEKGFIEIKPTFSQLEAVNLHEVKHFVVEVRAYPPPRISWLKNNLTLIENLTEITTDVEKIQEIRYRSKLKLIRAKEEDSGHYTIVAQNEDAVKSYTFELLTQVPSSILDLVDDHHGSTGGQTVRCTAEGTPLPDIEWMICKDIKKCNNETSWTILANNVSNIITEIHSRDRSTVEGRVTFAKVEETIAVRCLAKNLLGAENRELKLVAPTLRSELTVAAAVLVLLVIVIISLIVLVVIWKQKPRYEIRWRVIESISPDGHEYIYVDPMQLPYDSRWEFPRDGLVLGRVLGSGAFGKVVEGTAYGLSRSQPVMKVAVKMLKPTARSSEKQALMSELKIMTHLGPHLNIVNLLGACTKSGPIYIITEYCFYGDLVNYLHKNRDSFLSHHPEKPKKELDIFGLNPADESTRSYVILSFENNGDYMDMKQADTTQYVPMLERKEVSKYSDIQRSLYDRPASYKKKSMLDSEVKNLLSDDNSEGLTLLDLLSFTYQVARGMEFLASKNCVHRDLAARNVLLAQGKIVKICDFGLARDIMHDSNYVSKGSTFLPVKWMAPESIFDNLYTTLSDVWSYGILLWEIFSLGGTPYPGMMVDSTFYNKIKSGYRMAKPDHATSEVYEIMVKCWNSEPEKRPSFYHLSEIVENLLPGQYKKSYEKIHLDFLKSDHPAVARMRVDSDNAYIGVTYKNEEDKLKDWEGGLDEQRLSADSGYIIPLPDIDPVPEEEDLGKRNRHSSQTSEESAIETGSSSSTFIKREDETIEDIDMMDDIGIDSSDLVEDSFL
# assay.info: Kinase inhibition activity test, isotope labeling: PDGFRα
# Type: biochemical
# run.conditions: test compound at a concentration of 10 μM
Exercise: state measured Activity inhibition rate PDGFRα (h) for each of the molecules provided.
Return type: number; implicit unit %.

Which value of Activity inhibition rate PDGFRα (h) has been reported for O=C(Nc1ccc(Oc2ncnc3[nH]ncc23)cc1)Nc1ccc(C(F)(F)F)cc1Cl in the records?
63

Which value of Activity inhibition rate PDGFRα (h) has been reported for O=C(Nc1ccc(C(F)(F)F)cc1)Nc1ccc(Oc2ncnc3[nH]ncc23)c(F)c1 in the records?
24

Which value of Activity inhibition rate PDGFRα (h) has been reported for O=C(Nc1ccc(Oc2ncnc3[nH]ncc23)cc1)Nc1ccc(Cl)c(C(F)(F)F)c1 in the records?
93

Which value of Activity inhibition rate PDGFRα (h) has been reported for O=C(Nc1ccccc1)Nc1ccc(Oc2ncnc3[nH]ncc23)cc1 in the records?
48

Which value of Activity inhibition rate PDGFRα (h) has been reported for C[C@H](NC(=O)Nc1ccc(Oc2ncnc3[nH]ncc23)cc1)c1ccccc1 in the records?
96

* * *

Exercise: state measured pIC50 for each of the compounds provided.
pIC50: −log10 of the molar value.

Lab note: need pIC50 with FGFR2 (Homo sapiens) for entry O=C(Nc1ccc(Oc2ncnc3[nH]ncc23)cc1)Nc1cccc(C(F)(F)F)c1 , please look it up.
Sequence (P21802 22-821): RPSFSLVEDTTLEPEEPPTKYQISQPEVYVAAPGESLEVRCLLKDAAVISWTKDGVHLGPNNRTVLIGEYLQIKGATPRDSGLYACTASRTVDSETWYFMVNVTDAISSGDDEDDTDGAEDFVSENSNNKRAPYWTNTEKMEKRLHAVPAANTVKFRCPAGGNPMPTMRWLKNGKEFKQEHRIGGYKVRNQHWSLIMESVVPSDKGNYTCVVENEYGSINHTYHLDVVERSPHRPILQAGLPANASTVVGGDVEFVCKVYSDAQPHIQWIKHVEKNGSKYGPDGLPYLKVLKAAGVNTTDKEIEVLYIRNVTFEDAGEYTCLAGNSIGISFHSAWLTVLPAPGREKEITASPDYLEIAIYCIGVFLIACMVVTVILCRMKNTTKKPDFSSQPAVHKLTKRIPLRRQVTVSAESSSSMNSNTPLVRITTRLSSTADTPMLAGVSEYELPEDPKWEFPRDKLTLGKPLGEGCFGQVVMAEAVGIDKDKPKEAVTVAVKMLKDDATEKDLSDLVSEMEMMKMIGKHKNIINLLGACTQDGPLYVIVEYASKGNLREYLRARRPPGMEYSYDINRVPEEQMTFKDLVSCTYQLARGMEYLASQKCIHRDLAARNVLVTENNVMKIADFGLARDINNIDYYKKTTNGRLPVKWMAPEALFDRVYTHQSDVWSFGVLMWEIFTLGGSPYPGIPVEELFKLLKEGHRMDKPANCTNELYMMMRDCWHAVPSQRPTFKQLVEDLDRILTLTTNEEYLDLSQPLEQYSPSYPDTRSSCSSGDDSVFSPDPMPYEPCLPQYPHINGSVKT
> 5.00

Lab note: need pIC50 with FGFR2 (Homo sapiens) for entry CC(C)(C)c1cc(NC(=O)Nc2ccc(Oc3ncnc4[nH]ncc34)cc2)on1 , please look it up.
> 5.00

Lab note: need pIC50 with FGFR2 (Homo sapiens) for entry O=C(Nc1ccc(Oc2ncnc3[nH]ncc23)cc1)Nc1ccc(Cl)c(C(F)(F)F)c1 , please look it up.
5.74

* * *

# System: human pancreatic carcinoma cell line panc-1
# assay.info: In vitro tumor cell proliferation inhibition (MTT): panc-1
# Type: cell-based
# run.conditions: 72 hours
Exercise: state measured IC50 for each of the molecules provided.

Which value of IC50 has been reported for CC(C)c1cccc(NC(=O)Nc2ccc(Oc3ncnc4[nH]ncc34)c(F)c2)c1 [4a-7] in the records?
< 50 µM

Which value of IC50 has been reported for C[C@H](NC(=O)Nc1ccc(Nc2ncnc3[nH]ncc23)cc1)c1ccccc1 [4b-4] in the records?
< 50 µM

Which value of IC50 has been reported for CC(C)(C)c1cc(NC(=O)Nc2ccc(Oc3ncnc4[nH]ncc34)cc2)n(-c2ccccc2)n1 [4a-24] in the records?
< 50 µM

Which value of IC50 has been reported for C[C@@H](NC(=O)Nc1ccc(Oc2ncnc3[nH]ncc23)cc1)c1ccccc1 [4a-19] in the records?
< 50 µM

Which value of IC50 has been reported for O=C(Nc1ccccc1)Nc1ccc(Oc2ncnc3[nH]ncc23)cc1 [4a-15] in the records?
< 50 µM

Which value of IC50 has been reported for O=C(Nc1ccc(Oc2ncnc3[nH]ncc23)cc1)Nc1ccc(Cl)c(C(F)(F)F)c1 [4a-2] in the records?
< 50 µM

Which value of IC50 has been reported for O=C(Nc1ccc(Oc2ncnc3[nH]ncc23)cc1)Nc1ccc(C(F)(F)F)cc1Cl [4a-13] in the records?
< 50 µM

Which value of IC50 has been reported for O=C(Nc1ccc(Oc2ncnc3[nH]ncc23)cc1)Nc1cc(C(F)(F)F)cc(C(F)(F)F)c1 [4a-12] in the records?
< 50 µM

Which value of IC50 has been reported for CC(C)(C)c1cc(NC(=O)Nc2ccc(Sc3ncnc4[nH]ncc34)cc2)no1 [4c-3] in the records?
< 50 µM

Which value of IC50 has been reported for O=C(Nc1cccc(Oc2ncnc3[nH]ncc23)c1)Nc1cccc(C(F)(F)F)c1 [4a-41] in the records?
< 50 µM

Which value of IC50 has been reported for O=C(Nc1ccc(Sc2ncnc3[nH]ncc23)cc1)Nc1cccc(C(F)(F)F)c1 [4c-2] in the records?
< 50 µM

Which value of IC50 has been reported for C[C@H](NC(=O)Nc1ccc(Oc2ncnc3[nH]ncc23)cc1)c1ccccc1 [4a-18] in the records?
< 50 µM

Which value of IC50 has been reported for O=C(Nc1ccc(Oc2ncnc3[nH]ncc23)c(F)c1)Nc1ccc(Cl)c(C(F)(F)F)c1 [4a-10] in the records?
< 50 µM

Which value of IC50 has been reported for CC(C)(C)c1cc(NC(=O)Nc2ccc(Oc3ncnc4[nH]ncc34)c(F)c2)no1 [4a-31] in the records?
3 to 10 µM

Which value of IC50 has been reported for CC(C)(C)c1cc(NC(=O)Nc2ccc(Oc3ncnc4[nH]ncc34)cc2)on1 [4a-25] in the records?
3 to 10 µM

Which value of IC50 has been reported for O=C(Nc1ccc(C(F)(F)F)cc1)Nc1ccc(Oc2ncnc3[nH]ncc23)c(F)c1 [4a-9] in the records?
2.31 µM

* * *

# tested.on: FLT3 (Homo sapiens, UniProt P36888)
# Sequence (P36888 27-993): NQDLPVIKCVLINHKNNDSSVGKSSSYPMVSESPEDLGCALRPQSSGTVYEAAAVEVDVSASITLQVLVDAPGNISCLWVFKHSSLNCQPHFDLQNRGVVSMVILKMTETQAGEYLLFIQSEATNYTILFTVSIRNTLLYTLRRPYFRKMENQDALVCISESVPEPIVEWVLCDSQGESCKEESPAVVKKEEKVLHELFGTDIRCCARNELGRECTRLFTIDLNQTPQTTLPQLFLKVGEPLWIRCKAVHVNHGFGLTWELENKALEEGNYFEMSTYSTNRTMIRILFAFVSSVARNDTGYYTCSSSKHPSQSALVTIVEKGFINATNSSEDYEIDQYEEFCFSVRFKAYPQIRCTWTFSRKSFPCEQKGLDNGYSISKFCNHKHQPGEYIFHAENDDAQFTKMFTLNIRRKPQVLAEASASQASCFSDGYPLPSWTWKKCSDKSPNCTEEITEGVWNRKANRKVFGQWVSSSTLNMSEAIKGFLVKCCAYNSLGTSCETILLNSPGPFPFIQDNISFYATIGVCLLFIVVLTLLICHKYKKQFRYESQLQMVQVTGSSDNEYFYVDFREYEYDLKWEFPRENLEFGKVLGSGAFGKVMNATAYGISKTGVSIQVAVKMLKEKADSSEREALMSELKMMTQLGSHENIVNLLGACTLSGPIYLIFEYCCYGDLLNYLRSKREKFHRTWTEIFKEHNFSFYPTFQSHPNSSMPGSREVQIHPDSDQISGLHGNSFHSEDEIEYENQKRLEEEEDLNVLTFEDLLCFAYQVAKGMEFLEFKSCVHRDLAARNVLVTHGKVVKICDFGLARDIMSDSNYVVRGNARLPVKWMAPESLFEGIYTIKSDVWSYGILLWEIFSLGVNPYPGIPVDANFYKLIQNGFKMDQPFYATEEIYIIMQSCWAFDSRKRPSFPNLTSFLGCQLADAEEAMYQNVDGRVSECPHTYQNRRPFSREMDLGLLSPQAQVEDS
# assay.info: Kinase inhibition activity test, isotope labeling (γ-33P-ATP): FLT3
# Assay type: biochemical
# run.conditions: test compound at a concentration of 10 μM; read-out: Activity inhibition rate Flt3 (h)
Exercise: state measured inhibition at 10 µM for each of the compounds provided.

Which value of inhibition at 10 µM has been reported for O=C(Nc1cccc(Nc2ncnc3[nH]ncc23)c1)Nc1ccc(F)c(Cl)c1 in the records?
30%

Which value of inhibition at 10 µM has been reported for Cc1cc(C)c(NC(=O)Nc2ccc(NC(=O)N3C=NC=C4NNC=C43)cc2)c(C)c1 in the records?
91%

Which value of inhibition at 10 µM has been reported for O=C(Nc1ccc(NC(=O)N2C=NC=C3NNC=C32)cc1)Nc1ccc(Cl)c(C(F)(F)F)c1 in the records?
95%
